# key: entry, value: T/C
tested on: P388 leukemia ip, CD2F1 mice, survival T/C; assay: NCI In Vivo Anticancer Drug Screen. Data for tumor model P388 Leukemia (intraperitoneal) in CD2F1 (CDF1) mice; details: endpoint: median survival time; dose: 200.0 mg/kg/injection; schedule: Q04DX003 (ip); vehicle: Klucel (hydroxypropylcellulose) (HPC); higher = longer survival
Inconclusive results and toxic doses are left out.
observable: T/C

1. O=C(O)C1C2C=CC(C1C(=O)O)N(/C=C/c1ccccc1)C2=O (stereo not drawn) : 91 % of control
2. CCCCCCCCCCCC(=O)OCCS(=O)(=O)CCOC(=O)CCCCCCCCCCC : 103 % of control
3. CC(C)C1C(=O)N(c2ccccc2)N(C)C1C (stereo not drawn) : 104 % of control
4. C(=C1\Oc2ccccc2N=C1OCCN1CCOCC1)/c1ccccc1 : 99 % of control
5. Cc1ccc2c(c1)C1(C)OC(C=CC1=O)O2 (stereo not drawn) : 113 % of control
6. O=C1C2=C(C(=O)C3=C1C1C=CC3C1)C1C=CC2C1 : 102 % of control
7. NC(CSCCNc1ccc([N+](=O)[O-])cc1[N+](=O)[O-])C(=O)O (stereo not drawn) : 99 % of control
8. O=C1OC(c2ccccc2)N/C1=C\c1ccc(OCc2ccccc2)c(OCc2ccccc2)c1 (stereo not drawn) : 87 % of control
9. COc1ccc(C(=O)/C=C/c2ccc(OC)c(OC)c2OC)c(O)c1 : 99 % of control
10. Cc1ccc2[nH]c(C)c(C(=O)c3ccncc3)c2c1 : 100 % of control
11. [O-]c1n[n+](Cc2ccc(Br)cc2)no1 : 110 % of control
12. NC(=O)c1[nH]c(N=Nc2ccc(S(N)(=O)=O)cc2)nc1N : 101 % of control
13. COc1ccc(CN2COc3c(ccc4cccnc34)C2)cc1 : 93 % of control
